Some sequences, each annotated with its measured pre-steady-state target cleavage rate.
Test system: MIWI (PIWIL1) piRISC loaded with Kctd7 piRNA (30 nt);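 further: 1 nM active piRISC with 0.1 nM target library at 33 °C single turnover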
Experiment: pre-steady-state target cleavage rate (min^-1); higher = faster piRNA-guided slicing of the target
Conditions: guide: Kctd7 piRNA 5'p-UGUUAAUCUCUCAGAGAAGGUGACAGUGAU; auxiliary factor: 500 nM mouse GTSF1
Over roughly 6,600 sequences, “pre-steady-state target cleavage rate” has its median near 0.07; the highest 2% begin near 0.72. Many of the other results were omitted from the sample, so the highest values are more common in it than they were.
Respond using a number only.

Worked cases, pre-steady-state target cleavage rate given:
UAGUCUGUCACCAUCUCUGAGAGAUUAAGA; 0.0769
AUCUCUGUCACCUUCUCUCAGAGAUUAACA; 0.105
UACACUGUCACCUUCUCUGAGUGAUUUACA; 0.0176

Return reported pre-steady-state target cleavage rate; argument: UUCACUGUCUACCUUCUCUGAGAGAUUAACA
0.208

I would be grateful if you could share the reported pre-steady-state target cleavage rate for AUCAGACUCACCUUCUCUGAGAGAUUAACA .
0.726

What value of measured pre-steady-state target cleavage rate is listed for AUCUCUGUCACCUUCUCUGAGAGUUUAACA ?
0.711

For the sequence shown here, UAGUGAGUGACCUUCUCAGAGAGAUUAACA , give the reported pre-steady-state target cleavage rate.
0.226

Find the recorded pre-steady-state target cleavage rate belonging to UACACUCUCACCUUCACUGAGAGAUUAACA and report it.
0.256

What measured pre-steady-state target cleavage rate goes with ACUCACUGUCACCUUCUCUGAGAGAUUAACA ?
0.781

For UAGUCUGUCACCUUCUCUGAGUGAUUAUCA , what is its reported pre-steady-state target cleavage rate?
0.015

Fill in the blank: the reported pre-steady-state target cleavage rate of AUUCACUGUCACCUUCUCUGAGAGAUUAACA is ____.
0.737

# get_value(readout='pre-steady-state target cleavage rate', item= UAGUCUGUCACCUUCUCACAGAGAUUAACA )
0.0188

Which pre-steady-state target cleavage rate is listed for UUCUCUGUCACCUUCACUGAGAGAUUAACA ?
0.392

* * *

Here the recorded pre-steady-state target cleavage rate is given for each entry.
Tested on: MIWI (PIWIL1) piRISC loaded with Kctd7 piRNA (30 nt);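 further: 1 nM active piRISC with 0.1 nM target library at 33 °C single turnover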
Assay: pre-steady-state target cleavage rate (min^-1); higher = faster piRNA-guided slicing of the target
Settings: guide: Kctd7 piRNA 5'p-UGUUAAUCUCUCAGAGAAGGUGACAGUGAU; auxiliary factor: 500 nM mouse GTSF1
Whole data set: some 6,600 sequences, median “pre-steady-state target cleavage rate” near 0.07, cut for the highest 2% near 0.72. The sample holds the highest values, similar sequences and a random draw of the others, so the mix is not that of the screen.

As a guide, the following entries are already answered.
UAGACUGUGACCUUCUCUGAGAGAUUAUCA; 0.246
UAGUGACUCCACCUUCUCUGAGAGAUUAACA; 0.415
UAGACUGUCACCUUCUCUGAGAAGAUUAACA; 0.0399
AUCUCUGUCACCUUGUCUGAGAGAUUAACA; 0.394

What does the data say about its pre-steady-state target cleavage rate? Entry: AAGACUGUCACCUUCUCUGAGAGAUUAAGA
0.238

Return reported pre-steady-state target cleavage rate; argument: UAGUGUGUCGACCUUCUCUGAGAGAUUAACA
0.155

Suppose we examine the sequence UUCACUGUGACCUUCUCUGAGAGAUUAUGA ; what pre-steady-state target cleavage rate value has been reported?
0.119

So what's the measured pre-steady-state target cleavage rate for this one? UAGACUGUCACCUUCUCUGAGAGAUUAACC [g2:g27:cont:t1C]
0.322

I am curious: what pre-steady-state target cleavage rate value has been reported for UAGUCUGUCACCUUCGCUGAGAGAUUAACA ?
0.416

Sample UAGAGUGACACCUUCUCUGAGAGAUUAACA — what was its pre-steady-state target cleavage rate?
0.55

* * *

System: MIWI (PIWIL1) piRISC loaded with Kctd7 piRNA (30 nt);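 further: 1 nM active piRISC with 0.1 nM target library at 33 °C single turnover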
Assay: pre-steady-state target cleavage rate (min^-1); higher = faster piRNA-guided slicing of the target
Details: guide: Kctd7 piRNA 5'p-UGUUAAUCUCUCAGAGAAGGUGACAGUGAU; auxiliary factor: 500 nM mouse GTSF1
In all, about 6,600 sequences were measured (“pre-steady-state target cleavage rate”: median about 0.07, highest 2% from about 0.72 on). The entries come from a sample that favours the highest values as a whole.
Class True: pre-steady-state target cleavage rate at least 0.7. Class False: pre-steady-state target cleavage rate below 0.7.

Recorded results for 5 sequences are shown here.
UAGACUGUCACCUUCUGUGAGAGAUAUUGA; False
AUGACUGUCACCAUCUCUGAGAGAUUAACA; True
UAGUCUGUCACCAUCUCUGAGAGAUUAACA; False
UAGUGACUCUACCUUCUCUGAGAGAUUAACA; False
UUGACUGUCACCAUCUCUGAGAGAUUAACA; True

Does the reported pre-steady-state target cleavage rate for UAGUGUCACACCUUCUCUGAGAGAUAUUGA fall at or above the 0.7 mark?
False

* * *

Tested on: MIWI (PIWIL1) piRISC loaded with Kctd7 piRNA (30 nt);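 further: 1 nM active piRISC with 0.1 nM target library at 33 °C single turnover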
Experiment: pre-steady-state target cleavage rate (min^-1); higher = faster piRNA-guided slicing of the target
Settings: guide: Kctd7 piRNA 5'p-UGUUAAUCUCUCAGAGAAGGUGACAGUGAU; auxiliary factor: 500 nM mouse GTSF1
The full ranking holds about 6,600 sequences; the median of “pre-steady-state target cleavage rate” is about 0.07, and the highest 2% start at about 0.72. The list comes from a sample in which the highest values are over-represented; it also holds close analogues and randomly drawn sequences.
Dear colleague, classification is by pre-steady-state target cleavage rate, with ranges listed here: low group (below 0.2), middle group (0.2 to below 0.7), high group (0.7 or more)

Just checking, what class would you give UAGACUGUCACCUUCUCUGAGAGAUUAACCA here?
middle group

Field: class (pre-steady-state target cleavage rate) — entry: UUCUCUGUCACCUUCUCUGAGAGAUAUUGA
low group

State the band of UAGUGACACACCAUUCUCUGAGAGAUUAACA
middle group

Exam item: assign UUCAGUGUCACCAUCUCUGAGAGAUUAACA to the correct category.
middle group

Band assignment needed for UAGUGAGACACCUUCUCUGAGAGAUUAAGA please.
low group

* * *

Catalogue of sequences with associated pre-steady-state target cleavage rate
Tested on: MIWI (PIWIL1) piRISC loaded with Kctd7 piRNA (30 nt);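 further: 1 nM active piRISC with 0.1 nM target library at 33 °C single turnover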
Test: pre-steady-state target cleavage rate (min^-1); higher = faster piRNA-guided slicing of the target
Details: guide: Kctd7 piRNA 5'p-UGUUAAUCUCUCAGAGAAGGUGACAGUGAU; auxiliary factor: 500 nM mouse GTSF1
Whole data set: some 6,600 sequences, median “pre-steady-state target cleavage rate” near 0.07, cut for the highest 2% near 0.72. Only a selection was taken, and the highest values are over-represented in it overall.
Lab note: record just the number, no unit beside it.

Example results:
UAGUGACUCACCUUCUCUGAGUGAUAAACA; 0.0392
UACACUGUCACCUCCUCUGAGAGAUUAACA; 0.731
UAGACUGUCACCUCCUCUGAGAGAUUAACA; 0.744
UAGUGACAGUCCUUCCUCUGAGAGAUUAACA; 0.27
UAGACUGUCACCUCUCUGAGAGAUUAACA; 0.321

Record lookup: for MIWI (PIWIL1) piRISC loaded with Kctd7 piRNA (30 nt), what pre-steady-state target cleavage rate belongs to UUCACUGUCACCUUCUCUGAGAGUUUUACA ?
0.559

* * *

Tested on: MIWI (PIWIL1) piRISC loaded with Kctd7 piRNA (30 nt);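 further: 1 nM active piRISC with 0.1 nM target library at 33 °C single turnover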
Test: pre-steady-state target cleavage rate (min^-1); higher = faster piRNA-guided slicing of the target
Conditions: guide: Kctd7 piRNA 5'p-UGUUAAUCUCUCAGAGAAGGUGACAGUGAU; auxiliary factor: 500 nM mouse GTSF1
Over roughly 6,600 sequences, “pre-steady-state target cleavage rate” has its median near 0.07; the highest 2% begin near 0.72. For the sample, the highest values were picked, then their nearest neighbours and some sequences at random.
recorded_metric: pre-steady-state target cleavage rate
Lab note: record the figure alone, no unit after it.

UUCACUGUCACCUUCUCCUGAGAGAUUAACA; 0.795
UACACUGUCACCUUCUCCUGAGAGAUUAACA; 0.115
UUCACUGUCACGUUCUCUCAGAGAUUAACA; 0.0729
AUCACUGUCACCUUCUCCUGAGAGAUUAACA; 0.645
UACACUGUCACCUUCUCCGAGAGAUUAACA; 0.351

Turning to the following sequence.
Which pre-steady-state target cleavage rate is listed for UUCACUGUACACCUUCUCUGAGAGAUUAACA ?
0.655

* * *

System: MIWI (PIWIL1) piRISC loaded with Kctd7 piRNA (30 nt);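 further: 1 nM active piRISC with 0.1 nM target library at 33 °C single turnover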
Test: pre-steady-state target cleavage rate (min^-1); MIWI and MILI are mouse PIWI proteins and EfPiwi is from a freshwater sponge; tags in brackets are library labels; higher = faster piRNA-guided slicing of the target;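 further: 1 nM active piRISC with 0.1 nM target library at 33 °C single turnover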
Details: guide: Kctd7 piRNA 5'p-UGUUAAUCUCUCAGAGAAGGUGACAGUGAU; auxiliary factor: 500 nM mouse GTSF1
In all, about 6,600 sequences were measured (“pre-steady-state target cleavage rate”: median about 0.07, highest 2% from about 0.72 on). The entries come from a sample that favours the highest values as a whole.
Examples of sequences with documented pre-steady-state target cleavage rate follow.
Keep the answer to the number alone.

Some solved entries appear below for comparison.
UUCAACUGUCACCUUCUCUGAGAGAUUAACA; 0.733
UAGUGACAGUGCUUCACUGAGAGAUUAACA; 0.00805

May I ask what pre-steady-state target cleavage rate has been recorded for AUCAACUGUCACCUUCUCUGAGAGAUUAACA ?
0.737

Given the sequence UUGACUGUCACCUUCUCUGAGAGAUUAACA , what is its reported pre-steady-state target cleavage rate?
0.777

Quick one: pre-steady-state target cleavage rate for UUCACUGUCAACCUUCUCUGAGAGAUUAACA ?
0.271

So what's the measured pre-steady-state target cleavage rate for this one? UUCACUGUCAGCUUCUCUGAGAGAUUAUCA
0.24

So what does the record say about pre-steady-state target cleavage rate for UAAACUGUCACCUUCUCUGAGAGAUUAACA ?
0.677

Looking for the measured pre-steady-state target cleavage rate of UAGUGACUCACCUUCUCUGAUAGAUUAACA , can you help?
0.778

Fill in: pre-steady-state target cleavage rate of UAGUGACUGACCUUCUCUGAGAGAUUAACA is ___
0.363

Requested read-out: pre-steady-state target cleavage rate. Entry: UAGUCUGUCACCUUCUCUGAGACAUUAUCA
0.0172

Dear colleague, I am looking for the recorded pre-steady-state target cleavage rate of the following sequence: UAGACUGUCACCUACUCUGAGAGUUUAACA
0.147

May I ask what pre-steady-state target cleavage rate has been recorded for UUCACUGUCACCUUCUCUGUGAGAUUUACA ?
0.158

What pre-steady-state target cleavage rate value was documented for this sequence, UAGUGACUGCACCUUCUCUGAGAGAUUAACA ?
0.77
